Target: serotoninergic 5-HT2A receptor (Homo sapiens, UniProt P28223)
Sequence (P28223 whole entry): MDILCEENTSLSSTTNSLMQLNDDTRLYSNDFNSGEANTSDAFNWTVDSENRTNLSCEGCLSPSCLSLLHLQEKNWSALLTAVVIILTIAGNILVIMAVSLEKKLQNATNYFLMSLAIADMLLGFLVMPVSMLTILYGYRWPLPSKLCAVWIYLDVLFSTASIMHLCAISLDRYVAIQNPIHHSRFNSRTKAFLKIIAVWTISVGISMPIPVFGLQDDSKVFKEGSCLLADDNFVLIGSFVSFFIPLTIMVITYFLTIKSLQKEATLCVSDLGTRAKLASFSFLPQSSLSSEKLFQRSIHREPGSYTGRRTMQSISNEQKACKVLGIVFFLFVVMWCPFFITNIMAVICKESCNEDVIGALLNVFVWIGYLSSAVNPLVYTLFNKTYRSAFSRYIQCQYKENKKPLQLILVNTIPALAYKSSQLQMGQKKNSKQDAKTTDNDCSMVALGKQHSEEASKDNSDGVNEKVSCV
Assay: Binding assay 5-HT2A (h), [3H]ketanserin, HEK-293 cells
Parameters: expressed in transfected cells; host or cells: HEK-293 cells
Conditions: read-out: 5-HT2A
Kindly supply the reported inhibition at 1 µM values for the records listed here.
Returns: string containing the numeric result and its unit.

• O=S(=O)(NCCCN1CCN(c2nsc3ccccc23)CC1)c1ccc(Cl)cc1 = 92%
• O=S(=O)(NCCCCN1CCC(c2noc3cc(F)ccc23)CC1)c1cccc(F)c1 = 95%
• O=S(=O)(NCCCN1CCC(c2noc3cc(F)ccc23)CC1)c1cccc(Br)c1 = 99%
• O=S(=O)(NCCCCN1CCN(c2cccc3[nH]ccc23)CC1)c1cc2ccc(Cl)cc2s1 = 98%
• O=c1[nH]c2cccc(N3CCN(CCCNS(=O)(=O)c4cccc(Cl)c4)CC3)c2[nH]1 = -24%

Dear reader, for each entry below, please note its inhibition at 1 µM.
1. CC(C)(C)c1ccc(S(=O)(=O)NCCCN2CCC(c3noc4cc(F)ccc34)CC2)cc1
2. O=S(=O)(NCCCCN1CCN(c2cccc3c2OCCO3)CC1)c1ccc2cc(Cl)ccc2c1
3. O=S(=O)(NCCCCN1CCC(c2noc3cc(F)ccc23)CC1)c1ccc(Cl)cc1

Data returned:
1: 99%; 2: 90%; 3: 93%

Required: inhibition at 1 µM, one value per compound below.
1. O=S(=O)(NCCCN1CCN(c2nsc3ccccc23)CC1)c1ccc(F)cc1
2. O=S(=O)(NCCCCN1CCN(c2nsc3ccccc23)CC1)c1cccc(Br)c1
3. O=S(=O)(NCCCN1CCC(c2noc3cc(F)ccc23)CC1)c1ccc2c(c1)OCCO2
4. Cc1cccc(S(=O)(=O)NCCN2CCN(c3nsc4ccccc34)CC2)c1
5. O=S(=O)(NCCCN1CCC(c2noc3cc(F)ccc23)CC1)c1cc2ccccc2s1
6. Cc1cc(S(=O)(=O)NCCCN2CCC(c3noc4cc(F)ccc34)CC2)c(C)s1
7. O=S(=O)(NCCCCN1CCN(c2cccc3[nH]ccc23)CC1)c1cccc(C(F)(F)F)c1
8. O=c1[nH]c2ccc(S(=O)(=O)NCCCCN3CCN(c4nsc5ccccc45)CC3)cc2o1

Data returned:
["101%", "87%", "103%", "99%", "93%", "106%", "49%", "99%"]

The compound O=S(=O)(NCCCN1CC=C(c2c[nH]c3ccc(F)cc23)CC1)c1cccc(F)c1 , tested on serotoninergic 5-HT2A receptor (Homo sapiens, UniProt P28223), showed inhibition at 1 µM of 56%

---

Target: adrenergic α2C receptor (Homo sapiens, UniProt P18825)
Sequence (P18825 whole entry): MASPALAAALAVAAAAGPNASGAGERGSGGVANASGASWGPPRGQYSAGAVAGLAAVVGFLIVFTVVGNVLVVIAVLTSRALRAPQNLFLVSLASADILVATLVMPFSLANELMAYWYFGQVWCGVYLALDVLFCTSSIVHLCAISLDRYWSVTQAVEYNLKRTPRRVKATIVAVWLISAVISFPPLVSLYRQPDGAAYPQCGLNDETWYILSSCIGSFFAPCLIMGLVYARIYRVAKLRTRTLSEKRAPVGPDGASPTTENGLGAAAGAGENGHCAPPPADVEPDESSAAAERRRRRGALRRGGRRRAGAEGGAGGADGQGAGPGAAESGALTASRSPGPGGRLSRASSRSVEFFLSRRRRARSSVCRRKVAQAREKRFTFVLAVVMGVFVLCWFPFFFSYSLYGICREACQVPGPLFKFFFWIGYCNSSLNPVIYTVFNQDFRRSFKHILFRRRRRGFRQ
Assay: Cellular functional assay, adrenergic α2C receptor (agonism/antagonism)
Type: cell-based
Conditions: agonist effect, percent of control specific agonist response; compounds tested at 1×10^−6M; read-out: α2C −ag [%]
outcome-measure: activation at 1 µM (%)
Answers are plain numbers, in %.

* O=S(=O)(NCCCCN1CCN(c2noc3ccccc23)CC1)c1c[nH]c2ncccc12 | -10
* O=S(=O)(NCCCCN1CCN(c2noc3ccccc23)CC1)c1ccc2cc(Cl)ccc2c1 | 7
* O=S(=O)(NCCCCN1CCC(c2noc3cc(F)ccc23)CC1)c1ccc(Br)cc1 | -4

Reported activation at 1 µM ( O=S(=O)(NCCCCN1CCN(c2cccc3[nH]ccc23)CC1)c1cc2ccc(Cl)cc2s1 ) = 17

---

Target: dopaminergic D3 receptor (Homo sapiens)
Sequence (P35462 whole entry): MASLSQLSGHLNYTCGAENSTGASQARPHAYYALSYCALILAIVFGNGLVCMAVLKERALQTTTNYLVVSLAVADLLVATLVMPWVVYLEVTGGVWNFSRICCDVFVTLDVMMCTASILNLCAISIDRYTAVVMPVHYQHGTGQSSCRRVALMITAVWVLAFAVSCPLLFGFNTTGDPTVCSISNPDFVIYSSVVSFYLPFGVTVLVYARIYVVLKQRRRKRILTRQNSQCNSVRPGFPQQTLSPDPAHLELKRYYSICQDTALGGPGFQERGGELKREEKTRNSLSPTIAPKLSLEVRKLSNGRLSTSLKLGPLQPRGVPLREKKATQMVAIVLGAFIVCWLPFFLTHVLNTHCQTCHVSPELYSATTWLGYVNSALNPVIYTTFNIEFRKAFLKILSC
Assay: Binding assay D3 (h), [3H]methyl-spiperone, CHO cells
Design: expressed in transfected cells; host or cells: CHO cells
Conditions: read-out: D3 [%]
outcome-measure: inhibition at 1 µM (%)
Numbers only, in %.

Solved cases below.
* O=S(=O)(NCCCCN1CCN(c2cccc3[nH]ccc23)CC1)c1ccc(F)cc1 [Compound 359] | 100
* Cc1[nH]c2ccc(Cl)cc2c1C1=CCN(CCCNS(=O)(=O)c2cccc(O)c2)CC1 [Compound 445] | 97
* CC(C)(C)c1ccc(S(=O)(=O)NCCCN2CCC(c3noc4cc(F)ccc34)CC2)cc1 [Compound 333] | 89
* Cc1cccc(S(=O)(=O)NCCCN2CCN(c3cccc4c3OCCO4)CC2)c1 [Compound 414] | 81

For every item below, please supply its inhibition at 1 µM.
1. O=S(=O)(NCCCN1CCN(c2cccc3c2OCCO3)CC1)c1csc2ccccc12 [Compound 416]
2. O=S(=O)(NCCCN1CCN(c2nsc3ccccc23)CC1)c1cccs1 [Compound 261]
3. O=S(=O)(NCCCCN1CCN(c2cccc3[nH]ccc23)CC1)c1ccc(C(F)(F)F)cc1 [Compound 360]
4. O=S(=O)(NCCCCN1CCC(c2noc3cc(F)ccc23)CC1)c1cccc2ccccc12 [Compound 17]
5. O=S(=O)(NCCCCN1CCN(c2nsc3ccccc23)CC1)c1ccc2cn[nH]c2c1 [Compound 244]
6. O=S(=O)(NCCCCN1CCC(c2noc3cc(F)ccc23)CC1)c1ccc(C(F)(F)F)cc1 [Compound 302]

Data returned:
1. 56
2. 98
3. 100
4. 93
5. 91
6. 99

For each entry beneath this line, provide reported inhibition at 1 µM.
1. Cc1c(S(=O)(=O)NCCCCN2CCN(c3cccc4[nH]c(=O)[nH]c34)CC2)sc2ccc(Cl)cc12 [Compound 165]
2. O=S(=O)(NCCCCN1CCC(c2noc3cc(F)ccc23)CC1)c1cccs1 [Compound 325]
3. Cc1[nH]c2ccc(Cl)cc2c1C1=CCN(CCNS(=O)(=O)c2cccc3ccccc23)CC1 [Compound 447]
4. Cc1[nH]c2ccc(Cl)cc2c1C1=CCN(CCNS(=O)(=O)c2cccc(Cl)c2)CC1 [Compound 452]
5. O=C1COc2c(cccc2N2CCN(CCCCNS(=O)(=O)c3ccc(F)cc3)CC2)N1 [Compound 428]
6. N#Cc1ccc(S(=O)(=O)NCCCN2CCC(c3noc4cc(F)ccc34)CC2)cc1 [Compound 337]
7. O=S(=O)(NCCCN1CCC(c2noc3cc(F)ccc23)CC1)c1cnc2ccccn12 [Compound 356]
8. O=S(=O)(NCCCN1CCN(c2nsc3ccccc23)CC1)c1cnc2ccccn12 [Compound 76]

Data returned:
1: 89; 2: 95; 3: -17; 4: 14; 5: 104; 6: 79; 7: 96; 8: 71

For each entry beneath this line, provide reported inhibition at 1 µM.
1. O=S(=O)(NCCCCN1CCC(c2noc3cc(F)ccc23)CC1)c1ccc(F)cc1 [Compound 294]
2. O=S(=O)(NCCCCN1CCN(c2nsc3ccccc23)CC1)c1cccc2scnc12 [Compound 243]
3. CC(C)(C)c1ccc(S(=O)(=O)NCCCCN2CCC(c3noc4cc(F)ccc34)CC2)cc1 [Compound 301]
4. O=S(=O)(NCCCN1CCC(c2noc3cc(F)ccc23)CC1)c1cccc2ccccc12 [Compound 20]

Data returned:
1: 95; 2: 93; 3: 96; 4: 96

---

Target: serotoninergic receptor 5-HT2C (Homo sapiens)
Construct: expressed in transfected cells; host or cells: HEK-293 cells
Sequence (P28335 33-458): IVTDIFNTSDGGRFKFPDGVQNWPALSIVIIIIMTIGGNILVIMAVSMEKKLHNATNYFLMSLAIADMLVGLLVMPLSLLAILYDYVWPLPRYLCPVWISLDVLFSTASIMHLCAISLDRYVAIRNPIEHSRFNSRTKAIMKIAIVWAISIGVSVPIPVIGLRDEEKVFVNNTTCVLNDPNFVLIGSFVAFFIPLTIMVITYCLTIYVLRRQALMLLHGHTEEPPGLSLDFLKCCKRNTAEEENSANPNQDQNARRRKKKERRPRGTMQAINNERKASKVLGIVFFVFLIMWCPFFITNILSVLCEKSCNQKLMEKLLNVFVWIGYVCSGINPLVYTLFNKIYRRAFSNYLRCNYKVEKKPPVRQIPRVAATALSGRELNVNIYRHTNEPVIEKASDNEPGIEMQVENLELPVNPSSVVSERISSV
Test: Binding assay 5-HT2C (h), [3H]mesulergine, HEK-293 cells
Details: read-out: 5-HT2C [%]
outcome-measure: inhibition at 1 µM (%)
Give bare numbers, in %.

- O=S(=O)(NCCCN1CCC(c2noc3cc(F)ccc23)CC1)c1cccc2ccccc12: 75

// for each compound in input: emit inhibition at 1 µM
1. O=S(=O)(NCCCN1CCC(c2noc3cc(F)ccc23)CC1)c1cc2cccnc2[nH]1
2. O=S(=O)(NCCCCN1CCC(c2noc3cc(F)ccc23)CC1)c1ccc(Br)cc1
3. O=S(=O)(NCCCN1CCN(c2nsc3ccccc23)CC1)c1ccc2ccccc2c1

Data returned:
83
52
88

---

Biological target: histaminergic H1 receptor (Homo sapiens)
Sequence (P35367 whole entry): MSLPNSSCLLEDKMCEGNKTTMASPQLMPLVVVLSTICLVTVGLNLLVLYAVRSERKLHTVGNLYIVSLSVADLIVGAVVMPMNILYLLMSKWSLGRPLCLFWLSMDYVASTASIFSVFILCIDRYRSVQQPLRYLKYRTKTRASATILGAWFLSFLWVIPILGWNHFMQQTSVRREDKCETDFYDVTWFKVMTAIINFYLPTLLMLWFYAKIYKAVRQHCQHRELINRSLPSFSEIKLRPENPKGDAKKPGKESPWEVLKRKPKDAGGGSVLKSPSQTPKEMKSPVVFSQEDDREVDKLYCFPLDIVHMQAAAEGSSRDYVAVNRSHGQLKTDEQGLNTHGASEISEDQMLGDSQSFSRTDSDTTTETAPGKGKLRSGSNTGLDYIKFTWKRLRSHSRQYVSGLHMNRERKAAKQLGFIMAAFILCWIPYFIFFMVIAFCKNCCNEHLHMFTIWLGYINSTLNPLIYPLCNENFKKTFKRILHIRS
Experiment: Binding assay H1 (h), [3H]pyrilamine, HEK-293 cells
Set-up: expressed in transfected cells; host or cells: HEK-293 cells
Conditions: read-out: H1 [%]
What inhibition at 1 µM was measured for each of the following?
Give bare numbers, in %.

Some solved entries appear below for comparison.
* O=S(=O)(NCCCN1CCC(c2noc3cc(F)ccc23)CC1)c1ccc2cc(Cl)ccc2c1 | 100
* O=S(=O)(NCCCCN1CCN(c2cccc3[nH]ccc23)CC1)c1ccccc1 | 27
* O=S(=O)(NCCCCN1CCN(c2nsc3ccccc23)CC1)c1ccc2ccccc2c1 | 94
* CC(C)(C)c1ccc(S(=O)(=O)NCCCCN2CCC(c3noc4cc(F)ccc34)CC2)cc1 | 88

Give me inhibition at 1 µM for each of these compounds, listed below.
1. O=S(=O)(NCCCN1CCN(c2nsc3ccccc23)CC1)c1ccc2c(c1)OCO2
2. O=c1[nH]c2ccc(S(=O)(=O)NCCCN3CCN(c4nsc5ccccc45)CC3)cc2o1
3. O=S(=O)(NCCCN1CCC(c2noc3cc(F)ccc23)CC1)c1ccc(F)c(Cl)c1

Data returned:
1. 92
2. 97
3. 97

For each of the items listed, what is its inhibition at 1 µM?
1. O=c1[nH]c2cccc(N3CCN(CCCNS(=O)(=O)c4ccc(Cl)cc4)CC3)c2[nH]1
2. O=S(=O)(NCCCN1CCN(c2nsc3ccccc23)CC1)c1cc2ccccc2s1

Data returned:
[6, 95]
